- System: Escherichia coli TOP10
- test: shrunken log2 fold change of peptide-encoding DNA abundance (4.5 h post-induction vs induction); higher = less antimicrobial activity (less host growth inhibition)
- experimental-context: time post-induction: 4.5 h; library: site-saturation at positions 5, 18, 19, 20
Consider the reported shrunken log2 fold change of an entry and match it to a band in b0 = under -0.4, b1 = from -0.4 up to 0.05, b2 = 0.05 and over

// below: answered sequences
primary-sequence: RRIRNRPPRLPRPRPRPSMVPRP
target-of-assay: Escherichia coli TOP10
class-name: b0
--
primary-sequence: RRIRSRPPRLPRPRPRPCQMPRP
target-of-assay: Escherichia coli TOP10
class-name: b1
--
primary-sequence: RRIRYRPPRLPRPRPRPRYKPRP
target-of-assay: Escherichia coli TOP10;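 further: peptides expressed intracellularly from a pBAD plasmid library in pooled LB shake-flask culture, induced with 0.3% L-arabinose, DNA abundance read by NGS, three biological replicates, DESeq2 with apeglm shrinkage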
class-name: b0

Lookup: Which category does the recorded shrunken log2 fold change put `RRIRFRPPRLPRPRPRPKQIPRP` in?
Found: b1

Lookup: Which category does the recorded shrunken log2 fold change put `RRIRWRPPRLPRPRPRPVLYPRP` in?
Found: b1

Lookup: Which category does the recorded shrunken log2 fold change put `RRIRERPPRLPRPRPRPDMPPRP` in?
Found: b0

Lookup: Which category does the recorded shrunken log2 fold change put `RRIRLRPPRLPRPRPRPAWQPRP` in?
Found: b2

Lookup: Which category does the recorded shrunken log2 fold change put `RRIRERPPRLPRPRPRPLEEPRP` in?
Found: b2
